- Test system: Candida tropicalis
- procedureText: Antifungal activity against Candida tropicalis IAM 4965 assessed as concentration required to 50% growth inhibition using alamar blue staining after 18 to 72 hrs by microdilution method
- Format: functional
experimentalReadout: log10 MIC (log10 of the value in mg/L)
Record value = log10 of MIC given in mg/L.

Some compounds with recorded log10 MIC:
>  <chemicalStructure>
Cc1c(-c2ccccc2)c(N2CC[C@H](N(C)C)C2)c2[nH]c(C(C)(C)C)nc2c1C#N

>  <result>
0.30

$$$$
>  <chemicalStructure>
Cc1c(-c2ccccc2)c(N2CC[C@H](N(C)C)C2)n2nc(C(C)(C)C)nc2c1C#N

>  <result>
-0.60

$$$$
>  <chemicalStructure>
Cc1c(-c2ccccc2)c(N2CC[C@H](N(C)C)C2)n2c(nc3ccccc32)c1C#N

>  <result>
-0.60

$$$$
>  <chemicalStructure>
CN(C)[C@H]1CCN(c2c(-c3ccccc3)cc(C#N)c3nc(C(C)(C)C)oc23)C1

>  <result>
-0.30

$$$$

q: Kindly indicate its recorded log10 MIC. Item: CN(C)[C@H]1CCN(c2c(-c3ccccc3)cc(C#N)c3oc(C(C)(C)C)cc23)C1
a: 0.60

q: Assign log10 MIC to the following record: Cc1c(-c2ccccc2)c(N2CC[C@H](N(C)C)C2)c2oc(C(C)(C)C)nc2c1C#N.Cl
a: -1.20

q: Output log10 MIC of Cc1c(C#N)c2c(c(N3CC[C@H](N(C)C)C3)c1-c1ccccc1)OCC(C(C)(C)C)=N2
a: 1.20

q: Provide only the value of recorded log10 MIC for CN[C@H]1CCN(c2c(-c3ccccc3)c(C)c(C#N)c3nc(C(C)(C)C)oc23)C1.Cl
a: -0.60

q: Give a short answer stating reported log10 MIC for OC(Cn1cncn1)(Cn1cncn1)c1ccc(F)cc1F .
a: -0.60

* * *

Here the recorded logD is given for each entry.
- procedureText: Octanol-phosphate buffer partition coefficient, log D of the compound at pH 7.4
- Type: physicochemical
# answer = number (no unit)

>  <chemicalStructure>
Cc1c(-c2ccccc2)c(N2CC[C@H](N(C)C)C2)c2oc(C3CC3)nc2c1C#N

>  <result>
3.9

$$$$
>  <chemicalStructure>
Cc1nc2c(C#N)c(C)c(-c3ccccc3)c(N3CC[C@H](N(C)C)C3)c2o1

>  <result>
3.3

$$$$
>  <chemicalStructure>
CN(C)[C@H]1CCN(c2c(-c3ccccc3)cc(C#N)c3oc(C(C)(C)C)cc23)C1

>  <result>
5.4

$$$$

q: Please supply the value of reported logD for the item CN(C)[C@H]1CCN(c2c(-c3ccccc3)c3c(c4nc(C5CC5)oc24)C(=O)OC3)C1
a: 2.6

q: Specify logD for CN(C)[C@H]1CCN(c2c(-c3ccccc3)cc(C#N)c3nc(C(C)(C)C)oc23)C1 and stop.
a: 3.8

q: Please report logD for the following molecule: Cc1c(-c2ccccc2)c(N2CC[C@H](N(C)C)C2)c2oc(C3CCC3)nc2c1C#N
a: 4.5

q: Give recorded logD. Cc1c(-c2ccccc2)c(N2CC[C@H](N(C)C)C2)c2[nH]c(C(C)(C)C)nc2c1C#N
a: 4.7

q: Please look at this molecule and report its logD: CN[C@H]1CCN(c2c(-c3ccccc3)c(C)c(C#N)c3nc(C(C)(C)C)oc23)C1.Cl
a: 3.4

q: Please supply the value of reported logD for the item Cc1c(-c2ccccc2)c(N2CC[C@H](N(C)C)C2)c2oc(C3=CCCC3)nc2c1C#N
a: 5.2

* * *

- procedureText: Metabolic stability in human liver microsomes at 1 uM after 30 mins
- Format: ADME, Microsome
- experimentalSetup: read-out: Stability
Note to self: remaining at 0.5 h, 1 µM under 20% means fulfilled, ties and anything higher get not fulfilled.

Worked set:
>  <chemicalStructure>
CN[C@H]1CCN(c2c(-c3ccccc3)c(C)c(C#N)c3nc(C(C)(C)C)oc23)C1.Cl

>  <assignedLabel>
not fulfilled

$$$$
>  <chemicalStructure>
CN(C)[C@H]1CCN(c2c(-c3ccccc3)cc(C#N)c3nc(C(C)(C)C)oc23)C1

>  <assignedLabel>
fulfilled

$$$$
>  <chemicalStructure>
Cc1c(-c2ccccc2)c(N2CC[C@H](N(C)C)C2)n2nc(C(C)(C)C)nc2c1C#N

>  <assignedLabel>
fulfilled

$$$$
>  <chemicalStructure>
Cc1c(-c2ccccc2)c(N2CC[C@H](N(C)C)C2)c2[nH]c(C(C)(C)C)nc2c1C#N

>  <assignedLabel>
not fulfilled

$$$$

We now examine a further compound.
q: Find out if reported remaining at 0.5 h, 1 µM for Cc1c(-c2ccccc2)c(N2CC[C@H](N(C)C)C2)c2oc(C(C)(C)C)nc2c1C#N.Cl is less than 20%
a: fulfilled

* * *

- procedureText: Solubility in water at pH 6.8
- Assay type: physicochemical
Categorized via solubility: bucket 1: < 8 µg/mL; bucket 2: ≥ 8 µg/mL and < 60 µg/mL; bucket 3: ≥ 60 µg/mL

>  <compound>
Cc1c(-c2ccccc2)c(N2CC[C@H](N(C)C)C2)c2oc(C(C)(C)C)nc2c1C#N.Cl

>  <assignedLabel>
bucket 1

$$$$
>  <compound>
Cc1c(C#N)c2c(c(N3CC[C@H](N(C)C)C3)c1-c1ccccc1)OCC(C(C)(C)C)=N2

>  <assignedLabel>
bucket 2

$$$$
>  <compound>
CN(C)[C@H]1CCN(c2c(-c3ccccc3)c3c(c4nc(C5CC5)oc24)C(=O)OC3)C1

>  <assignedLabel>
bucket 3

$$$$
>  <compound>
OC(Cn1cncn1)(Cn1cncn1)c1ccc(F)cc1F [FLUCONAZOLE]

>  <assignedLabel>
bucket 3

$$$$
>  <compound>
Cc1c(-c2ccccc2)c(N2CC[C@H](N(C)C)C2)c2oc(C3=CCCC3)nc2c1C#N

>  <assignedLabel>
bucket 1

$$$$

q: Using the reported solubility, which band applies to CN(C)[C@H]1CCN(c2c(-c3ccccc3)cc(C#N)c3nc(C(C)(C)C)oc23)C1 ?
a: bucket 2

q: Each compound maps to one class by solubility. Which class for Cc1c(-c2ccccc2)c(N2CC[C@H](N(C)C)C2)c2oc(C3CCC3)nc2c1C#N ?
a: bucket 1

q: Any idea which band Cc1c(-c2ccccc2)c(N2CC[C@H](N(C)C)C2)n2c(nc3ccccc32)c1C#N is in?
a: bucket 1

* * *

- Test system: Candida albicans
- procedureText: Antifungal activity against Candida albicans ATCC 24433 assessed as concentration required to 50% growth inhibition using alamar blue staining after 18 to 72 hrs by microdilution method
- Assay type: functional
Recorded MIC for the following compounds
Quick reminder: number only, in µg/mL, skip the unit.

Use the examples below as a reference point.
>  <chemicalStructure>
Cc1c(-c2ccccc2)c(N2CC[C@H](N(C)C)C2)c2[nH]c(C(C)(C)C)nc2c1C#N

>  <experimentalReadout>
MIC

>  <result>
4

$$$$
>  <chemicalStructure>
CN[C@H]1CCN(c2c(-c3ccccc3)c(C)c(C#N)c3nc(C(C)(C)C)oc23)C1.Cl

>  <experimentalReadout>
MIC

>  <result>
16

$$$$
>  <chemicalStructure>
OC(Cn1cncn1)(Cn1cncn1)c1ccc(F)cc1F

>  <experimentalReadout>
MIC

>  <result>
0.25

$$$$

q: // Input: Cc1c(-c2ccccc2)c(N2CC[C@H](N(C)C)C2)c2oc(C(C)(C)C)nc2c1C#N.Cl . Output its MIC only.
a: 4

q: Report MIC for CN(C)[C@H]1CCN(c2c(-c3ccccc3)cc(C#N)c3nc(C(C)(C)C)oc23)C1
a: 16

* * *

The reader will find reported solubility values listed item by item below.
- procedureText: Solubility in water at pH 6.8
- Format: physicochemical
Answer with a number only, understood to be in µg/mL.

>  <chemicalStructure>
Cc1c(-c2ccccc2)c(N2CC[C@H](N(C)C)C2)c2[nH]c(C(C)(C)C)nc2c1C#N

>  <solubility (µg/mL)>
8

$$$$
>  <chemicalStructure>
Cc1nc2c(C#N)c(C)c(-c3ccccc3)c(N3CC[C@H](N(C)C)C3)c2o1

>  <solubility (µg/mL)>
120

$$$$
>  <chemicalStructure>
Cc1c(-c2ccccc2)c(N2CC[C@H](N(C)C)C2)c2oc(C3CC3)nc2c1C#N

>  <solubility (µg/mL)>
10

$$$$
>  <chemicalStructure>
Cc1c(-c2ccccc2)c(N2CC[C@H](N(C)C)C2)c2oc(N)nc2c1C#N

>  <solubility (µg/mL)>
18

$$$$

q: Specify reported solubility for the compound shown: CN[C@H]1CCN(c2c(-c3ccccc3)c(C)c(C#N)c3nc(C(C)(C)C)oc23)C1.Cl
a: 120

* * *

- Tested on: Candida albicans
- procedureText: Antifungal activity against Candida albicans ATCC 24433 assessed as concentration required to 50% growth inhibition using alamar blue staining after 18 to 72 hrs by microdilution method
- Format: functional
experimentalReadout: MIC

Example cases with answers are listed next.
>  <chemicalStructure>
CN(C)[C@H]1CCN(c2c(-c3ccccc3)cc(C#N)c3oc(C(C)(C)C)nc23)C1

>  <MIC>
> 4 µg/mL

$$$$
>  <chemicalStructure>
Cc1c(C#N)c2c(c(N3CC[C@H](N(C)C)C3)c1-c1ccccc1)OCC(C(C)(C)C)=N2

>  <MIC>
> 16 µg/mL

$$$$
>  <chemicalStructure>
CN(C)[C@H]1CCN(c2c(-c3ccccc3)cc(C#N)c3oc(C(C)(C)C)cc23)C1

>  <MIC>
> 4 µg/mL

$$$$
>  <chemicalStructure>
Cc1c(-c2ccccc2)c(N2CC[C@H](N(C)C)C2)n2nc(C(C)(C)C)nc2c1C#N

>  <MIC>
> 4 µg/mL

$$$$

Kindly review the next molecule as well.
q: Retrieve MIC measured for Cc1c(-c2ccccc2)c(N2CC[C@H](N(C)C)C2)n2c(nc3ccccc32)c1C#N and print it.
a: > 4 µg/mL
